Tested on: Plasmodium falciparum
Experiment: Plasmodium falciparum sporozoite viability assay; note: in the data most compounds retested in dose-response had high values
Assay type: functional, organism-based
The whole screen tested about 34,000 compounds, of which about 290 (0.85%) showed an effect of 50% or more. The entries come from a sample that favours strong results as a whole.
propertyMeasured: Percent Effect (%)
Kindly provide the numeric value in % only, without the unit symbol.

The examples below pair each entry with its known result.
> print(dat)
                                   compound  measurement
1  CC(C)c1nnc(NC(=O)NC2CCN(Cc3ccccc3)C2)s1 (stereo not drawn)        14.49
2  Cc1cc(OCC(O)c2nc3c([nH]2)CC(C)(C)CNC3=O)ccc1Cl (stereo not drawn)        5.403
3  CC(=O)Nc1nc2c(s1)C1(CCN(C)CC1)Nc1ccccc1S2        12.96
4  CC(=O)N1N=C(c2ccccc2)OC1C(=O)NCCc1ccc(O)cc1 (stereo not drawn)        3.916
5  CO[C@H]1C[C@@H](O)C12CCN(C(=O)NCc1ccco1)CC2        8.391
6  CC(C)N(C)S(=O)(=O)c1ccc2c(c1)CCN(C(=O)c1cnccn1)C2        -1.97
7              CCc1nc(-c2cccc(C(=O)O)c2)no1        7.751
8  Cc1ccc(S(=O)(=O)NC(=O)c2c(C)noc2C(C)C)cc1C       -15.45

Attention now shifts to the item below.
Please give the measured Percent Effect for this compound: CC(=O)NC1CCCN(C(=O)NCc2cc[nH]n2)C1 (stereo not drawn)
-1.899

---

Below: a set of entries, each annotated with reported Percent Effect.
System: Plasmodium falciparum
Test: Plasmodium falciparum sporozoite viability assay; note: in the data most compounds retested in dose-response had high values
Assay type: functional, organism-based
Out of some 34,000 compounds screened, about 290 (0.85%) showed an effect of 50% or more. For the sample, strong results were picked, then their nearest neighbours and some compounds at random.
Just the number in %, nothing appended.

Reported Percent Effect for CNC(=O)CN1CCC(c2cc(OC)cc(OC)c2)C1 (stereo not given) : what is it?
-3.657

Value lookup for Percent Effect; key = CN1C(=O)CCCC12CCCN(C(=O)c1ccoc1)C2 (stereo not given)
8.123

Please look up its Percent Effect: COCC(=O)N1CCOC(c2cccc(-c3cncnc3)n2)C1 (stereo not given)
0.9327

Fill in the blank: the reported Percent Effect of Cc1ccc(-n2nnc(C(=O)NCC(F)(F)F)c2C2CC2)cc1 is ____.
-7.493

Would you mind telling me what Percent Effect value was observed for COCC(NC(=O)c1cn2ccsc2n1)c1ccnn1C (stereo not given) ?
0.7162

---

Tested on: Plasmodium falciparum
Assay: Plasmodium falciparum sporozoite viability assay; note: in the data most compounds retested in dose-response had high values
Format: functional, organism-based
The campaign covered roughly 34,000 compounds. About 290 (0.85%) showed an effect of 50% or more. The sample holds strong results, similar compounds and a random draw of the others, so the mix is not that of the screen.
propertyMeasured: Percent Effect (%)
All answers are understood in %, so give the number only.

Record excerpt, results attached:
> print(dat)
                                   compound           targetentity  measurement
1    O=C(CCc1ccco1)Nc1cc(C(F)(F)F)c[nH]c1=O  Plasmodium falciparum        -11.4
2  COc1ccc(-c2cnc(N(C)C)nc2C2CNCCO2)cc1.Cl (centres undefined)  Plasmodium falciparum        3.932
3   CCOc1cc(/C=C/c2ncc(C(=O)O)s2)cc(Br)c1OC  Plasmodium falciparum        6.645
4  O=C1[C@H]2CN(S(=O)(=O)C3CC3)C[C@H]2CN1CC1CC1  Plasmodium falciparum        4.506
5           CCOC(=O)c1sc2ccsc2c1CNC(=O)CCOC  Plasmodium falciparum        -1.34
6  Cc1noc(C)c1CN(C)C(=O)NC1CCCN(S(C)(=O)=O)C1 (centres undefined)  Plasmodium falciparum        9.671
7      CCn1cnnc1CNC(=O)N1CCC(CN2CCCCCC2)CC1  Plasmodium falciparum        4.778
8   CN(C)CCN(C)c1cc(N2CCN(c3ccccn3)CC2)ncn1  Plasmodium falciparum       -8.534

Then this compound:
Requested field: Percent Effect. Item: O[C@H]1CN(Cc2c[nH]nc2-c2ccccc2)CC[C@@]12CCCO2
16.42
